test.target: CB2-Receptor (Homo sapiens, UniProt P34972)
Sequence (P34972 whole entry): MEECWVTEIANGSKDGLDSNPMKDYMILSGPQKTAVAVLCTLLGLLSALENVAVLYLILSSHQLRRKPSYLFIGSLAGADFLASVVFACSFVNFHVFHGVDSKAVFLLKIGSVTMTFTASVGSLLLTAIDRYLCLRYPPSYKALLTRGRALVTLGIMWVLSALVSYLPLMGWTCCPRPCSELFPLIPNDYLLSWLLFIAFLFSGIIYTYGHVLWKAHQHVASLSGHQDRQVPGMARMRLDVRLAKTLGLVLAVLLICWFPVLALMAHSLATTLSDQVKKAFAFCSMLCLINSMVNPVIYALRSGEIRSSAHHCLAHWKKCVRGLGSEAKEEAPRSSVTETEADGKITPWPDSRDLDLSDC
metric: Ki

[Q] Kindly state the measured Ki obtained for O=C(C1=NN(c2ccc(Cl)cc2Cl)C(c2ccc(Cl)cc2)C1)N1CCCCC1 (stereo not shown) with CB2-Receptor (Homo sapiens, UniProt P34972).
[A] ~1 µM
